B1: library; a variant is named by its letters at N, in order (parent)
chain: AATGTTGTTGATGCAACCATAAAGTGATATTTAATAATTATTTATAATCAGCAACTTAACCACAAAACAACCATATATTGATATNTCACAAAACAACCATAANTTGATATTTTTGTGAATCGAGTATTTCAGCAAAACTACTGCAGTAAGAA

- Variants of: B1
- test method notes: relative integration efficiency (T-LR orientation) vs wild-type transposon end (log2 (normalized fold change)); transposon end mutated: left end; higher = more efficient transposition
- stated conditions: with VchCAST RNA-guided transposition machinery (E. coli BL21(DE3) host, lacZ target)
Short version: relative integration efficiency (log2) at least -0.05 is Fulfilled, less is Not fulfilled.

- mutation label: "CG A69T A70T C71G C72G"
  classification: "Not fulfilled"
- mutation label: "TA A23G G24T A33T A70C T76A T84A C87A A96C T112G T113C"
  classification: "Fulfilled"
- mutation label: "CG A37C T38G T39G A40C"
  classification: "Fulfilled"
- mutation label: "CG A2G"
  classification: "Fulfilled"
- mutation label: "CG C17G C18G A19T T20A"
  classification: "Not fulfilled"
- mutation label: "CG A96C"
  classification: "Fulfilled"
- mutation label: "CG G115T"
  classification: "Fulfilled"
- mutation label: "TG A16C G24T T30A T76A A77G C87T"
  classification: "Fulfilled"
- mutation label: "CG T20C"
  classification: "Not fulfilled"
- mutation label: "CA A102T T111C T113C"
  classification: "Fulfilled"
- mutation label: "TA A16C G24T T30A A70C T76A T84A C87A T104G T113A"
  classification: "Fulfilled"
- mutation label: "CG T74A A75T T76A A77T"
  classification: "Not fulfilled"
- mutation label: "CG C18A"
  classification: "Fulfilled"
- mutation label: "CG A44C T45G A46C A47C"
  classification: "Fulfilled"
